Parameter: IC50. Scope: all listed entries.
target: SARS-CoV-2 3CL^pro (Severe acute respiratory syndrome coronavirus 2, UniProt P0DTD1)

smiles.structure | uom | IC50
CCC(CC)[C@H](NC(=O)[C@@H](F)Cl)C(=O)N1C[C@@H]2CCC[C@@H]2[C@H]1C(=O)NN(C[C@@H]1CC(C)(C)NC1=O)C(=O)[C@@H](F)Cl | µM | 0.009
CC1(C)C[C@H](CN(NC(=O)[C@@H]2[C@@H]3[C@H](CN2C(=O)[C@@H](NC(=O)[C@@H]2CC2(F)F)C(C)(C)C)C3(C)C)C(=O)[C@H](F)Cl)C(=O)N1 | µM | 0.087
CC1(C)C[C@H](CN(NC(=O)[C@@H]2[C@H]3CCC[C@H]3CN2C(=O)[C@@H](NC(=O)[C@@H]2CC2(F)F)C(C)(C)C)C(=O)[C@H](F)Cl)C(=O)N1 | µM | 0.081
